- System: HIV-1 89.6
- TEST_NAME: HIV replication assay (HIV-1 p24 antigen ELISA) in HIV-infected THP-1 and MT-2 cells
- Type: cell-based
- CONDITION: HIV-1 89.6; measured by gag p24 production; gene-specific PMO antisense
READOUT_KIND: Extent of PMO-induced Inhibition of HIV replication

>>> print(df.to_string())
                                  substance  measurement
0  YES (antisense TTTCTTTACTTTTAATGCAGCCCAT; all phosphorodiamidate morpholino (PMO))     positive
1  HRH1 (antisense GCGAAAGAGCAGCCGCCAGTTATGG; all phosphorodiamidate morpholino (PMO))     positive
2  HMG20B (antisense CGCCCAGCATCTTGGTGATCTCGGG; all phosphorodiamidate morpholino (PMO))     positive
